Tested on: maximal electroshock-induced seizures
measurementNotes: Maximal electroshock-induced seizures (MES)
Format: in vivo, mice
conditionSummary: Mus musculus; mice, tonic hindlimb extensor response, corneal electrodes 50 mA
Note to self: use 1 only for ED50 readings below 6 mg/kg; a reading exactly at 6 mg/kg still gets 0.

smilesString: CCCCNC(=N)Nc1cccc(C#CCCN2CCC(O)(c3ccc(Cl)cc3)CC2)c1
qualitativeLabel: 0
--
smilesString: C(#Cc1ccccc1)CCN1CCC(Cc2ccccc2)CC1
qualitativeLabel: 1
--
smilesString: CNc1ccc(C#CCCN2CCC(Cc3ccccc3)CC2)cc1
qualitativeLabel: 0
--
smilesString: Nc1cccc(C#CCCN2CCC(O)(c3ccc(Cl)cc3)CC2)c1
qualitativeLabel: 0
--
smilesString: Cc1ccc(CC2CCN(CCC#Cc3ccc(N)cc3)CC2)cc1
qualitativeLabel: 1
--
smilesString: Cc1ccc(CC2(O)CCN(CCC#Cc3ccc(N)cc3)CC2)cc1
qualitativeLabel: 1
--
smilesString: CC(=O)Nc1ccc(C#CCCN2CCC(Cc3ccccc3)CC2)cc1
qualitativeLabel: 0
--
smilesString: Nc1ccc(C#CCCN2CCC(Cc3ccccc3)CC2)cc1
qualitativeLabel: 1

In: Identify whether the compound `Oc1ccc(C#CCCN2CCC(Cc3ccccc3)CC2)cc1` records ED50 below 6 mg/kg.
Out: 1

---

studyTarget: NR1A/NR2C NMDA receptor (Rattus norvegicus, UniProt P35439+Q00961)
Sequence (Q00961 20-1237, other chains not shown): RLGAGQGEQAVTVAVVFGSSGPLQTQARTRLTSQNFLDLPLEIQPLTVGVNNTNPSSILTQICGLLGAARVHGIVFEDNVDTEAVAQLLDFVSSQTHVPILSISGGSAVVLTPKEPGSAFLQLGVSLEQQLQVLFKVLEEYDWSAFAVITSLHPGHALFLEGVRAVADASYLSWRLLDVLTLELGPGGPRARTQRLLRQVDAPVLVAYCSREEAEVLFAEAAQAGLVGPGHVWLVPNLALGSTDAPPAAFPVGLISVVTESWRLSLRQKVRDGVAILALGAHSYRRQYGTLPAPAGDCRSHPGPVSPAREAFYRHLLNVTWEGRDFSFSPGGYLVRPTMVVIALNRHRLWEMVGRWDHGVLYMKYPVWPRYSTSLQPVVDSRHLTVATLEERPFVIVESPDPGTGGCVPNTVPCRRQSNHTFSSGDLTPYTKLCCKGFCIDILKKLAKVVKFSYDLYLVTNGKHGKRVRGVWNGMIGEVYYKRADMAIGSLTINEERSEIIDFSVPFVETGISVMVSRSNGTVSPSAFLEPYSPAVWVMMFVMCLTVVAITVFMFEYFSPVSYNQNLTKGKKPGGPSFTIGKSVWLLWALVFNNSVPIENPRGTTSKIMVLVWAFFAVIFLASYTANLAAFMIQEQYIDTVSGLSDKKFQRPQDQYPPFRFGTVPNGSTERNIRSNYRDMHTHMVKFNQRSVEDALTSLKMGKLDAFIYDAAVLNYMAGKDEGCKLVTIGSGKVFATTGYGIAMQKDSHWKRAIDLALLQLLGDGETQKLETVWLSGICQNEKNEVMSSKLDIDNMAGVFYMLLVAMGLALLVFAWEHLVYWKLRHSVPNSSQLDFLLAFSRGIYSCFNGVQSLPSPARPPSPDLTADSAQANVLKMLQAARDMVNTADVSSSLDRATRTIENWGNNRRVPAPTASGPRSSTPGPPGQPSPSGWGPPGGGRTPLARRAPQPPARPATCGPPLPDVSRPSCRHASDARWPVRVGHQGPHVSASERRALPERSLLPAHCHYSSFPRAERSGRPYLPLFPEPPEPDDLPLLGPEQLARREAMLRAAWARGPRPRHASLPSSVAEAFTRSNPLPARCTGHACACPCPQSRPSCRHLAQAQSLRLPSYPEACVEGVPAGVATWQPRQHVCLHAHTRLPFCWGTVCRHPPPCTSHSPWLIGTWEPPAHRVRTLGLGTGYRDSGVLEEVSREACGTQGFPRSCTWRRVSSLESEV
measurementNotes: Electrophysiological assay, cloned NMDA receptor subunits expressed in Xenopus oocytes (1A/2C)
Format: cell-based
conditionSummary: read-out: Subunits (IC50 (μM)) 1A/2C, mean IC50, inhibition of NMDA-activated membrane current responses, glutamate 100 μM + glycine
measure: IC50

Value of measured IC50 for the entry `Nc1cccc(C#CCCN2CC=C(c3ccccc3)CC2)c1` : > 100 µM

---

studyTarget: NR1A/NR2A NMDA receptor (Rattus norvegicus, UniProt P35439+Q00959)
Sequence (Q00959 20-1464 limits assumed, other chains not shown): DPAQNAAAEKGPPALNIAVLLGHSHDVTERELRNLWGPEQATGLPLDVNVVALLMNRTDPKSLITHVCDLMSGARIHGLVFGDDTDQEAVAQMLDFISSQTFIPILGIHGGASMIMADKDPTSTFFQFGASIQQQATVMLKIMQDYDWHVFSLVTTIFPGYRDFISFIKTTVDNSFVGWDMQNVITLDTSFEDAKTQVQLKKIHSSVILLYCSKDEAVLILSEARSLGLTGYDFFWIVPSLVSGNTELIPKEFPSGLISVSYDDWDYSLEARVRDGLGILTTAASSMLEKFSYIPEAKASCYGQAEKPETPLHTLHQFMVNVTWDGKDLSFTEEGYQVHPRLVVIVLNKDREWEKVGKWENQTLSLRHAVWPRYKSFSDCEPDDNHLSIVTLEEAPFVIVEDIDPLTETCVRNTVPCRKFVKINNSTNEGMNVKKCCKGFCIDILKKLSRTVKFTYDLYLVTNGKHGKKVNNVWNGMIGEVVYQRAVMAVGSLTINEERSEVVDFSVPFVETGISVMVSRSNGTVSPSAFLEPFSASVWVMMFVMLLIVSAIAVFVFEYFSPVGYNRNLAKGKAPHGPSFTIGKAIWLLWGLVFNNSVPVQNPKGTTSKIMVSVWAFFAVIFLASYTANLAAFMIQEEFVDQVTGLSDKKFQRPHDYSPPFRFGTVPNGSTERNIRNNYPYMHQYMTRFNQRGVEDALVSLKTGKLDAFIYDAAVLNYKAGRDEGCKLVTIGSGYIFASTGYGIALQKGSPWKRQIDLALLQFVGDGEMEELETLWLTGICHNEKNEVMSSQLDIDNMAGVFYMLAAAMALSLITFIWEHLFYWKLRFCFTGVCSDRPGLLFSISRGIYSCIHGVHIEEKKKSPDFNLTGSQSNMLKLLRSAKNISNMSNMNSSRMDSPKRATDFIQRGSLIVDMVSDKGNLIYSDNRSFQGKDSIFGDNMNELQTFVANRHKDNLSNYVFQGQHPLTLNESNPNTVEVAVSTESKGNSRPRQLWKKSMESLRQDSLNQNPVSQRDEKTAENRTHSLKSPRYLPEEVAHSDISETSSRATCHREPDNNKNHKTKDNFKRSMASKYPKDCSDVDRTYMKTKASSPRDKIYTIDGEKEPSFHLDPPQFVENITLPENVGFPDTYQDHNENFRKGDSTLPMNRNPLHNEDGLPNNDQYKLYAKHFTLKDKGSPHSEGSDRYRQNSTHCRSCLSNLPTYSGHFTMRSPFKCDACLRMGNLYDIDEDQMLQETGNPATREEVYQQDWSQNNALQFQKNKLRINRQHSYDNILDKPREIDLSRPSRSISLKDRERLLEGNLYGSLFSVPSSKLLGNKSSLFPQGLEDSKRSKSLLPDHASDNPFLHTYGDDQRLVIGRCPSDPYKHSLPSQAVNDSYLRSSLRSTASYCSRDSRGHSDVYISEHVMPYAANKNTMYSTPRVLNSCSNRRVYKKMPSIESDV
measurementNotes: Electrophysiological assay, cloned NMDA receptor subunits expressed in Xenopus oocytes (1A/2A)
Format: cell-based
conditionSummary: read-out: Subunits (IC50 (μM)) 1A/2A, mean IC50, inhibition of NMDA-activated membrane current responses, glutamate 100 μM + glycine
measure: IC50 (µM)
Write it as a number; the unit µM goes unstated.

Value of measured IC50 for the entry `Nc1cccc(C#CCCN2CC=C(c3ccccc3)CC2)c1` : 40

---

studyTarget: NR1A/NR2B NMDA receptor (Rattus norvegicus, UniProt P35439+Q00960)
Sequence (Q00960 27-1482, other chains not shown): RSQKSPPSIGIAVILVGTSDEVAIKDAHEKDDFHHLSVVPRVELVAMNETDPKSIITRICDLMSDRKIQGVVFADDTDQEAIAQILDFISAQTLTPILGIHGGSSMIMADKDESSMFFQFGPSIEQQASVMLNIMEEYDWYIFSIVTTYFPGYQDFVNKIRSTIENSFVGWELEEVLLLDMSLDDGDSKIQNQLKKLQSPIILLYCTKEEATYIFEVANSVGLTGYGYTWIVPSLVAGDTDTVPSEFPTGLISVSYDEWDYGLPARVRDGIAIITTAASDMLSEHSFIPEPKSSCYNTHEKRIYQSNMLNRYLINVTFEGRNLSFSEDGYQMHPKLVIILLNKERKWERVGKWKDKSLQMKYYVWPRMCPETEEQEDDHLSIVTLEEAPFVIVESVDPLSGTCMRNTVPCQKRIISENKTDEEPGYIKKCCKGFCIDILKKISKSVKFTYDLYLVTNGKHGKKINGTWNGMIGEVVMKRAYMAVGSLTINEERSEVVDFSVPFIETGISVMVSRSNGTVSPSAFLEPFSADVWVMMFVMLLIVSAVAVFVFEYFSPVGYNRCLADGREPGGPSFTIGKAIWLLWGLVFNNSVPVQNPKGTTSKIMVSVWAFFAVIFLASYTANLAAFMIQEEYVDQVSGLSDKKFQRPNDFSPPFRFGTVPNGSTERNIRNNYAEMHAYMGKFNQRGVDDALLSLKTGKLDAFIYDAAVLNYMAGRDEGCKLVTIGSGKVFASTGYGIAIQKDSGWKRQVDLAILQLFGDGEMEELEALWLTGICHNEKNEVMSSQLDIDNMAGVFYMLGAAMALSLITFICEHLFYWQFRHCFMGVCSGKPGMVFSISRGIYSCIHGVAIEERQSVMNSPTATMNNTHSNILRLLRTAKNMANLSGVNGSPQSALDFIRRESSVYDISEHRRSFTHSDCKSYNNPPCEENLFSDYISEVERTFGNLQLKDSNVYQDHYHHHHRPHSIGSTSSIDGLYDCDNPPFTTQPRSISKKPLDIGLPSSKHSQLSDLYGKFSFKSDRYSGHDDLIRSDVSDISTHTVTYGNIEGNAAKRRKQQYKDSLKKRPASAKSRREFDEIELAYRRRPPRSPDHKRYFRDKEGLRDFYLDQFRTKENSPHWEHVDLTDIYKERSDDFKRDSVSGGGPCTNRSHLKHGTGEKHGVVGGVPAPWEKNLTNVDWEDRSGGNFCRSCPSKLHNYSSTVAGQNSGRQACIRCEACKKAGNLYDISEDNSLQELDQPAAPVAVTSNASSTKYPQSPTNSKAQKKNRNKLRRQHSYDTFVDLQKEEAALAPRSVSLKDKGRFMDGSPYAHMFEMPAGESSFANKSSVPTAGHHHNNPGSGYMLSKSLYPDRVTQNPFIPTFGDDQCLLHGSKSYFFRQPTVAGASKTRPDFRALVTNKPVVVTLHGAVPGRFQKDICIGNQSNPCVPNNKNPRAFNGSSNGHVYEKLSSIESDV
measurementNotes: Electrophysiological assay, cloned NMDA receptor subunits expressed in Xenopus oocytes (1A/2B)
Format: cell-based
conditionSummary: mean IC50, inhibition of NMDA-activated membrane current responses, glutamate 100 μM + glycine, read-out: Subunits (IC50 (μM)) 1A/2B
measure: IC50 (µM)
Write it as a number; the unit µM goes unstated.

Value of measured IC50 for the entry `Nc1ccc(C#CCN2CCC(Cc3ccccc3)CC2)cc1` : 12

Value of measured IC50 for the entry `O=[N+]([O-])c1ccc(C#CCCN2CCC(Cc3ccccc3)CC2)cc1` : 5
